Each recorded value in this set is attributed to paper PMC9516332.

Provide the reported inhibition at 1 µM of each item.
- measured-target: panel of 255 wild-type kinases (Homo sapiens, UniProt P48730)
- Sequence (P48730 whole entry): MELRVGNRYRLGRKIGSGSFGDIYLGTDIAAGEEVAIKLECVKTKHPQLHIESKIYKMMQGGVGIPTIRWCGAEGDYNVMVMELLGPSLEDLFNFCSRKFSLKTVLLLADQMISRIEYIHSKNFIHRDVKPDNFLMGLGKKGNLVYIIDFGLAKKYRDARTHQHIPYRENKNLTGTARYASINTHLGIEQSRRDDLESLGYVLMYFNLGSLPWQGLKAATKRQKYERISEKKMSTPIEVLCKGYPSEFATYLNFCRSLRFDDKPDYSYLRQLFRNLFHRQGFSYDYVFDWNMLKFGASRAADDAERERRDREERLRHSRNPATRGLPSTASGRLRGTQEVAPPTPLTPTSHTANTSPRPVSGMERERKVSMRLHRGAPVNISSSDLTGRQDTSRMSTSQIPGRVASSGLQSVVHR
- assay-comment: Kinase panel profiling at 1 µmol/L (MSA or IMAP), percentage inhibition
- Assay type: biochemical
- assay-conditions: kinase CK1δ; 1 µmol/L single concentration; read-out: %-inhibition at 1 µmol/L, CK1δ
Record the value in %, omitting the unit from your answer.

Provide measured inhibition at 1 µM value, entry: FC(F)(F)c1ccc(CNc2ccc(Cc3c[nH]c4ncc(Cl)cc34)cn2)cn1
-3.46

Input C=CC(=O)N1CCC([C@@H]2CCNc3c(C(N)=O)c(-c4ccc(Oc5ccccc5)cc4)nn32)CC1 , output reported inhibition at 1 µM.
-4

Output inhibition at 1 µM of CCN1CCN(c2ccc(Nc3cc(N(C)C(=O)Nc4c(Cl)c(OC)cc(OC)c4Cl)ncn3)cc2)CC1
-4.4

Entry Cn1cc(-c2cc3c(N4CCN(c5ncc([C@@](C)(N)c6ccc(F)cc6)cn5)CC4)ncnn3c2)cn1 needs its inhibition at 1 µM filled in; supply it.
11

* * *

What IC50 was measured for each of the following?
- Test system: 134 cancer cell lines
- assay-comment: Cell viability assay (ATPlite, 72 hours), IC50 on cancer cell line panel
- assay-conditions: Homo sapiens, U-87 MG, read-out: IC50 in cell proliferation assay

Output IC50 of C=CC(=O)N1CCC([C@@H]2CCNc3c(C(N)=O)c(-c4ccc(Oc5ccccc5)cc4)nn32)CC1
> 31.6 µM

Please look at this compound and report its IC50: CC#CC(=O)N1CCC[C@H]1c1nc(-c2ccc(C(=O)Nc3ccccn3)cc2)c2c(N)nccn12
> 31.6 µM

Find the measured IC50 of C[C@@H](Oc1cc(-c2cnn(C3CCNCC3)c2)cnc1N)c1c(Cl)ccc(F)c1Cl and report it.
0.222 µM

Quick one: give measured IC50 for C[C@H]1Oc2cc(cnc2N)-c2c(nn(C)c2C#N)CN(C)C(=O)c2ccc(F)cc21
> 31.6 µM

* * *

Provide the recorded IC50 for the entries that follow.
- Test system: 134 cancer cell lines
- assay-comment: Cell viability assay (ATPlite, 72 hours), IC50 on cancer cell line panel
- assay-conditions: Homo sapiens, BT-20, read-out: IC50 in cell proliferation assay, cell line BT-20
// units = µM; emit number, no label

Indicate the recorded IC50 value for this molecule: CN1CCN(c2ccc(C(=O)Nc3n[nH]c4ccc(Cc5cc(F)cc(F)c5)cc34)c(NC3CCOCC3)c2)CC1
10.7

Supply measured IC50 of COc1ccc(CN2C3CC2CN(c2ccc(-c4cc(OCC(C)(C)O)cn5ncc(C#N)c45)cn2)C3)cn1 in your reply.
3.36

Recall and state the measured IC50 for Cc1cc(Nc2ncnc3ccc(NC4=NC(C)(C)CO4)cc23)ccc1Oc1ccn2ncnc2c1 .
28.8

* * *

Field: IC50. Provide a value for each of the molecules that follow.
- System: 134 cancer cell lines
- assay-comment: Cell viability assay (ATPlite, 72 hours), IC50 on cancer cell line panel
- assay-conditions: Homo sapiens, HEC-1, read-out: IC50 in cell proliferation assay, HEC-1 cell line
Number only, in µM; omit the unit.

Annotate the molecule C[C@H](Nc1ncnc2nc[nH]c12)c1cc2cccc(Cl)c2c(=O)n1-c1ccccc1 with its measured IC50.
11.2

For the molecule COc1ccc(CN2C3CC2CN(c2ccc(-c4cc(OCC(C)(C)O)cn5ncc(C#N)c45)cn2)C3)cn1 , give its measured IC50 value.
8.9

Give recorded IC50. CO[C@]1(C(=O)N[C@@H](C)c2ccc(-n3cc(F)cn3)nc2)CC[C@H](c2nc(C)cc(Nc3cc(C)[nH]n3)n2)CC1
2.32

Give the measured IC50 for CN1CCN(c2ccc(C(=O)Nc3n[nH]c4ccc(Cc5cc(F)cc(F)c5)cc34)c(NC3CCOCC3)c2)CC1
3.73

* * *

- measured-target: panel of 255 wild-type kinases (Homo sapiens, UniProt Q00526)
- Sequence (Q00526 whole entry): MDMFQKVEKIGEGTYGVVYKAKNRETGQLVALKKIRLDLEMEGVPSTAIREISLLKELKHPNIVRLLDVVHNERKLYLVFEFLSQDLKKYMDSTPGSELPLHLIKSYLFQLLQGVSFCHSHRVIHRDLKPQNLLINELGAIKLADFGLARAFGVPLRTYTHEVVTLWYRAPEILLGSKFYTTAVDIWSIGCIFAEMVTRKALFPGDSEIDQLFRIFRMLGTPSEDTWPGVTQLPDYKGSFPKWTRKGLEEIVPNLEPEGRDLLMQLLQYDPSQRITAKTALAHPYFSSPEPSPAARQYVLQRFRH
- assay-comment: Kinase panel profiling at 1 µmol/L (MSA or IMAP), percentage inhibition
- Format: biochemical
- assay-conditions: CDK3/CycE1 kinase assay; 1 µmol/L single concentration; read-out: %-inhibition CDK3/CycE1
Record form. Attribute: inhibition at 1 µM. Fill in for each entry.
Return type: number; implicit unit %.

For C=CC(=O)N1CCC([C@@H]2CCNc3c(C(N)=O)c(-c4ccc(Oc5ccccc5)cc4)nn32)CC1 , write its inhibition at 1 µM.
2.65

For the compound CCN1C(=O)N(c2c(F)c(OC)cc(OC)c2F)Cc2cnc3[nH]c(CN4CCOCC4)cc3c21 , give its measured inhibition at 1 µM value.
11

Output inhibition at 1 µM of C[C@H]1Oc2cc(cnc2N)-c2c(nn(C)c2C#N)CN(C)C(=O)c2ccc(F)cc21
3

* * *

- Test system: 134 cancer cell lines
- assay-comment: Cell viability assay (ATPlite, 72 hours), IC50 on cancer cell line panel
- assay-conditions: read-out: IC50 in cell proliferation assay, cell line DB
measurement-name: IC50

Note down IC50 recorded for Cn1cnc2c(F)c(Nc3ccc(Br)cc3F)c(C(=O)NOCCO)cc21
> 31.6 µM

Query IC50 for CCN1CCN(c2ccc(Nc3cc(N(C)C(=O)Nc4c(Cl)c(OC)cc(OC)c4Cl)ncn3)cc2)CC1
> 3.16 µM

Supply reported IC50 belonging to this molecule: O=C(Nc1cnn2ccc(N3CCC[C@@H]3c3cc(F)ccc3F)nc12)N1CC[C@H](O)C1
> 31.6 µM

Give the measured IC50 for COc1cc2ncnc(Nc3ccc(F)c(Cl)c3)c2cc1NC(=O)/C=C/CN1CCCCC1
3.6 µM

Check the records and state IC50 for Cc1nc(NC(=O)N2CCC[C@H]2C(N)=O)sc1-c1ccnc(C(C)(C)C(F)(F)F)c1
23 µM

Indicate its recorded IC50; the molecule in question is FC(F)(F)c1ccc(CNc2ccc(Cc3c[nH]c4ncc(Cl)cc34)cn2)cn1
> 31.6 µM

* * *

Assignment: determine reported inhibition at 1 µM for the given compounds.
- measured-target: panel of 255 wild-type kinases (Homo sapiens)
- assay-comment: Kinase panel profiling at 1 µmol/L (MSA or IMAP), percentage inhibition
- Assay type: biochemical
- assay-conditions: MAPKAPK3; 1 µmol/L single concentration; read-out: %-inhibition, MAPKAPK3
Report the value in % with no unit label.

Write down inhibition at 1 µM measured for item COC(=O)N[C@@H](C)CNc1nccc(-c2cn(C(C)C)nc2-c2cc(Cl)cc(NS(C)(=O)=O)c2F)n1 [encorafenib]
-15

Give recorded inhibition at 1 µM. COc1ccc(CN2C3CC2CN(c2ccc(-c4cc(OCC(C)(C)O)cn5ncc(C#N)c45)cn2)C3)cn1 [selpercatinib]
-12

Name the recorded inhibition at 1 µM of the compound listed here: C[C@H](Nc1ncnc2nc[nH]c12)c1cc2cccc(Cl)c2c(=O)n1-c1ccccc1 [duvelisib]
-13

Supply recorded inhibition at 1 µM for CCN1C(=O)N(c2c(F)c(OC)cc(OC)c2F)Cc2cnc3[nH]c(CN4CCOCC4)cc3c21 [pemigatinib] here.
-12

Provide only the value of recorded inhibition at 1 µM for C=CC(=O)N1CCC([C@@H]2CCNc3c(C(N)=O)c(-c4ccc(Oc5ccccc5)cc4)nn32)CC1 [zanubrutinib]
-12

Please look at this compound and report its inhibition at 1 µM: COc1cc2ncnc(Nc3ccc(F)c(Cl)c3)c2cc1NC(=O)/C=C/CN1CCCCC1 [dacomitinib]
-25

Return the recorded inhibition at 1 µM value; entry: CCn1c(=O)c(-c2cc(NC(=O)Nc3ccccc3)c(F)cc2Br)cc2cnc(NC)cc21 [ripretinib]
-16

Please look at this compound and report its inhibition at 1 µM: FC(F)(F)c1ccc(CNc2ccc(Cc3c[nH]c4ncc(Cl)cc34)cn2)cn1 [pexidartinib]
-15

Give recorded inhibition at 1 µM. C[C@H]1Oc2cc(cnc2N)-c2c(nn(C)c2C#N)CN(C)C(=O)c2ccc(F)cc21 [lorlatinib]
-10

Tell me inhibition at 1 µM reported for CN1CCN(c2ccc(C(=O)Nc3n[nH]c4ccc(Cc5cc(F)cc(F)c5)cc34)c(NC3CCOCC3)c2)CC1 [entrectinib]
-10

State its inhibition at 1 µM: Cn1cnc2c(F)c(Nc3ccc(Br)cc3F)c(C(=O)NOCCO)cc21 [binimetinib]
-11

Output measured inhibition at 1 µM for this item: CCc1nc(C(N)=O)c(Nc2ccc(N3CCC(N4CCN(C)CC4)CC3)c(OC)c2)nc1NC1CCOCC1 [gilteritinib]
-16

* * *

- measured-target: panel of 255 wild-type kinases (Homo sapiens, UniProt Q16644)
- Sequence (Q16644 whole entry): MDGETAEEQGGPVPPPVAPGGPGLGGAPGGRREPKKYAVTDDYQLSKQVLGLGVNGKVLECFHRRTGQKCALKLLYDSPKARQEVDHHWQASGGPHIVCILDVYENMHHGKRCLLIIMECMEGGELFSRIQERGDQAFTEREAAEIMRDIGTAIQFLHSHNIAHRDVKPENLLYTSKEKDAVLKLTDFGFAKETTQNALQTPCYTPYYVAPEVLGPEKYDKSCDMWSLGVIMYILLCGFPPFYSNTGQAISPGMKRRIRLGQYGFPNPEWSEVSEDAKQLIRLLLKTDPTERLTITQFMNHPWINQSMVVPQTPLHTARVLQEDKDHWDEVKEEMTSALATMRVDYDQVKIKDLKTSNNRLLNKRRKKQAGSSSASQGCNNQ
- assay-comment: Kinase panel profiling at 1 µmol/L (MSA or IMAP), percentage inhibition
- Format: biochemical
- assay-conditions: MAPKAPK3; 1 µmol/L single concentration; read-out: %-inhibition, MAPKAPK3
Give measured inhibition at 1 µM for each item. Keep answers brief.
Form field: result (number plus unit)

Find the measured inhibition at 1 µM of O=C(Nc1cnn2ccc(N3CCC[C@@H]3c3cc(F)ccc3F)nc12)N1CC[C@H](O)C1 and report it.
-16%

# return recorded inhibition at 1 µM for entry Cn1cnc2c(F)c(Nc3ccc(Br)cc3Cl)c(C(=O)NOCCO)cc21
-14%

Identify measured inhibition at 1 µM corresponding to Cn1cc(-c2cc3c(N4CCN(c5ncc([C@@](C)(N)c6ccc(F)cc6)cn5)CC4)ncnn3c2)cn1
-4%

State its inhibition at 1 µM for this compound: CO[C@]1(C(=O)N[C@@H](C)c2ccc(-n3cc(F)cn3)nc2)CC[C@H](c2nc(C)cc(Nc3cc(C)[nH]n3)n2)CC1
-22%

Supply measured inhibition at 1 µM of CCN1CCN(c2ccc(Nc3cc(N(C)C(=O)Nc4c(Cl)c(OC)cc(OC)c4Cl)ncn3)cc2)CC1 in your reply.
-17%

Quickly give me recorded inhibition at 1 µM for Cc1nc(NC(=O)N2CCC[C@H]2C(N)=O)sc1-c1ccnc(C(C)(C)C(F)(F)F)c1
-13%

Return inhibition at 1 µM (reported value) for this compound: Cc1cc(Nc2ncnc3ccc(NC4=NC(C)(C)CO4)cc23)ccc1Oc1ccn2ncnc2c1
-3%
